This collection of values is drawn from PubChem BioAssay (EPA / NIEHS).

Read-out: Macrophage colony-stimulating factor (MCSF), CSF1 (gene 1435)
testDetails: BSK_CASM3C_MCSF: BioMAP Diversity Plus: CASM3C Assay for Macrophage colony-stimulating factor (MCSF) Biomarker Activity (AID 2283044);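 note: M-CSF protein amount quantified by ELISA after 24 h exposure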
measurementSetup: primary human coronary artery smooth muscle cells; actives raise or lower the signal
Calls of active or inactive are those of the source. Rule for the calls: active = hit-call score of the fitted dose curve at least 0.9, where 1 is the maximum; inactive = score below 0.9.
Possible outcomes: Y = active, N = inactive

{"columns": ["molecule", "labelClass"],
 "data": [
  ["CC(C)C(=O)OCC(C)(C)C(OC(=O)C(C)C)C(C)C (configuration not stated)", "N"],
  ["CCOC(=O)C(O)(c1ccc(Cl)cc1)c1ccc(Cl)cc1", "N"],
  ["CO/C=C(/C(=O)OC)c1ccccc1COc1cccc(C(F)(F)F)n1", "N"],
  ["c1ccc(-c2ccccc2)cc1", "N"],
  ["CN(C)c1nc(=O)n(C2CCCCC2)c(=O)n1C", "N"],
  ["Oc1ccc(Cl)cc1Cl", "N"],
  ["CC1=C2C[C@H]3[C@@H](CC=C4C[C@@H](O)CC[C@@]43C)[C@@H]2CC[C@]12O[C@@H]1C[C@H](C)CN[C@H]1[C@H]2C", "N"],
  ["Clc1ccc(C(Cl)(Cl)Cl)cc1", "N"],
  ["CCCCCCCCOC(=O)c1ccccc1C(=O)OCCCCCCCC", "N"],
  ["O=C(NC(=O)c1cc(F)c(F)cc1Cl)Nc1cc(F)ccc1N1CCC(C(=O)O)CC1", "N"],
  ["CN(C)CCO", "N"],
  ["Cc1cccc(C)c1N", "N"],
  ["Cc1cc2c3c(c1)C(c1ccccc1)=N[C@@H](NC(=O)c1ccncc1)C(=O)N3CC2", "N"],
  ["CC(C)(O)C(=O)Nc1ccc([N+](=O)[O-])c(C(F)(F)F)c1", "N"],
  ["Cc1ccccc1O", "N"],
  ["Cc1ccccc1CO[C@@H]1C[C@@]2(C(C)C)CC[C@]1(C)O2", "N"],
  ["CCOP(=S)(OCC)SCSC(C)(C)C", "Y"],
  ["Cc1cc(O)ccc1Cl", "N"],
  ["COS(=O)(=O)OC", "N"],
  ["C1CC2OC2CC1C1CO1 (configuration not stated)", "N"],
  ["Nn1cnnc1", "N"],
  ["CCCCCCCCCc1ccc(O)cc1", "Y"],
  ["CCC(=O)O[C@H]1CC[C@H]2[C@@H]3CCC4=CC(=O)CC[C@]4(C)[C@H]3CC[C@]12C", "N"],
  ["CCCN(CCC)N=O", "N"],
  ["CCCCCCOC(=O)c1ccccc1C(=O)OCCCCCC", "N"],
  ["O=C(N[C@H]1CN2CCC1CC2)c1cc2ccoc2cn1", "N"],
  ["O=S(=O)(O)C(F)(F)C(F)(F)C(F)(F)C(F)(F)F", "N"]
]}

----------
system: zebrafish Estrogen Receptor (ER1), esr1 (gene 259252)
testDetails: ATG_zfER1_XSP2: Attagene TRANS-FACTORIAL Multi-Species (XSP2) HepG2 Assay for zebrafish Estrogen Receptor (ER1) (AID 2283816)
Procedure: ATG_XSP2_multi-species_TRANS is a cell-based, multiplexed assay created by modifying the existing Attagene TRANS-FACTORIAL system to include a panel of nuclear receptors from some or all the following species: human (Homo sapiens), mouse (Mus musculus), frog (Xenopus laevis), zebrafish (Danio rerio), chicken (Gallus gallus), and turtle (Chrysemys picta). The ECOTOX-FACTORIAL format uses HepG2, a human liver cell line, with measurements taken at 24 hours after chemical dosing in a 24-well plate. […]
Results filed as inconclusive are left out. The source made the active and inactive calls. Rule for the calls: active = hit-call score of the fitted dose curve at least 0.9, where 1 is the maximum; inconclusive = response in the unintended direction; inactive = score below 0.9.
Possible outcomes: active, inactive

{"columns": ["smilesCode", "labelClass"],
 "data": [
  ["CC(C)(O)C(=O)Nc1ccc([N+](=O)[O-])c(C(F)(F)F)c1", "inactive"],
  ["C[C@]12CCC(=O)C=C1CC[C@@H]1[C@@H]2CC[C@@]2(C)[C@H]1CC[C@]2(C)O", "active"],
  ["CC(c1ccc(O)cc1)(c1ccc(O)cc1)c1ccc(O)cc1", "inactive"],
  ["CCC(=O)O[C@H]1CC[C@H]2[C@@H]3CCC4=CC(=O)CC[C@]4(C)[C@H]3CC[C@]12C", "inactive"],
  ["ClC(Cl)=C(c1ccc(Cl)cc1)c1ccc(Cl)cc1", "inactive"],
  ["c1cc2ccc3cccc4ccc(c1)c2c34", "inactive"]
]}
